System: FME
ASSAY_NAME: Hypersensitivity (HF) factor in human melanoma FME cells [HF= ratio (IC50 in AA8 cells)/(IC50 in FME cells)]
Type: functional
Would you mind sorting the entries by HF according to these classes? lower level (below 2), middle level (2 to below 4), upper level (4 or more)

Cc1ncc([N+](=O)[O-])n1CCNS(=O)(=O)CCCn1cnc([N+](=O)[O-])n1    lower level
COCC(O)Cn1ccnc1[N+](=O)[O-] (stereo unspecified) [MISONIDAZOLE]    lower level
Cc1ncc([N+](=O)[O-])n1CCNC(=O)CCCn1ccnc1[N+](=O)[O-]    middle level

Exercise: Band of CN(CCCn1ccnc1[N+](=O)[O-])CCCn1ccnc1[N+](=O)[O-] ?
Solution: middle level

Exercise: Kindly identify the class of Cc1ncc([N+](=O)[O-])n1CCNC(=O)CCC(=O)NCCn1ccnc1[N+](=O)[O-] .
Solution: middle level

Exercise: Which band does O=[N+]([O-])c1nccn1CC1OC(n2ccnc2[N+](=O)[O-])C(O)C(O)C1O (stereo unspecified) fall in?
Solution: middle level

Exercise: Could you tell me which band Cc1ncc([N+](=O)[O-])n1CCNCCCn1ccnc1[N+](=O)[O-] belongs to?
Solution: middle level

Exercise: State the class of the compound shown: O=C(CCCn1cnc([N+](=O)[O-])n1)NCCCn1ccnc1[N+](=O)[O-]
Solution: upper level

Exercise: Determine which band this compound sits in: Cc1ncc([N+](=O)[O-])n1CCNC(=O)CCCn1cnc([N+](=O)[O-])n1
Solution: upper level

Exercise: Determine which band this compound sits in: Cc1ncc([N+](=O)[O-])n1CCN(C)CCCCn1ccnc1[N+](=O)[O-]
Solution: lower level

###

Tested on: CHO-AA8
ASSAY_NAME: Concentration x time (uM h) to reduce cell survival to 10% of control values under hypoxic conditions by clonogenic assay
Format: ADME, cell-based, Cricetulus griseus
TEST_SETTINGS: chinese hamster
# strict inequality: CT10 < 20000 µM·h yields MET, everything else yields NOT MET

Cc1ncc([N+](=O)[O-])n1CC(O)Cn1cnc([N+](=O)[O-])n1 (centres undefined)    NOT MET
COCC(O)Cn1ccnc1[N+](=O)[O-] (centres undefined)    MET
Cc1ncc([N+](=O)[O-])n1CCNC(=O)CCCn1ccnc1[N+](=O)[O-]    MET
C[N+](C)(CCCn1ccnc1[N+](=O)[O-])CCCn1ccnc1[N+](=O)[O-].[I-]    NOT MET
O=C(CCCn1cnc([N+](=O)[O-])n1)NCCCn1ccnc1[N+](=O)[O-]    MET
O=[N+]([O-])c1nccn1CC(O)CN1CCCCC1 (centres undefined)    MET
Cc1ncc([N+](=O)[O-])n1CCN(C)C(=O)CCCn1ccnc1[N+](=O)[O-]    MET
Cc1ncc([N+](=O)[O-])n1CCN(C)CCCCn1ccnc1[N+](=O)[O-]    MET

Exercise: Determine whether this molecule shows CT10 lower than 20000 µM·h (ties excluded): O=[N+]([O-])c1nccn1CCCNCCCn1ccnc1[N+](=O)[O-]
Solution: MET

Exercise: Please determine if O=[N+]([O-])c1nccn1CC(O)CNCCBr (centres undefined) is below 20000 µM·h in terms of CT10.
Solution: MET

Exercise: Does this molecule meet the criterion CT10 < 20000 µM·h? O=C(CCCn1ccnc1[N+](=O)[O-])NCCn1cnc([N+](=O)[O-])n1
Solution: MET

Exercise: CT10 under 20000 µM·h? Item: Cc1ncc([N+](=O)[O-])n1CCNCCCn1ccnc1[N+](=O)[O-]
Solution: MET

Exercise: Regarding Cc1ncc([N+](=O)[O-])n1CCNC(=O)CCCn1cnc([N+](=O)[O-])n1 , kindly confirm whether its CT10 is beneath 20000 µM·h.
Solution: NOT MET

###

Test system: EMT6
ASSAY_NAME: Hypersensitivity (HF) factor in murine mammary carcinoma EMT6 cells [HF= ratio (IC50 in AA8 cells)/(IC50 in EMT6)]
Format: functional, Mus musculus
MEASURE_NAME: HF
Could you respond with only the numeric value?

O=C(CCCn1cnc([N+](=O)[O-])n1)NCCn1ccnc1[N+](=O)[O-]    1.76
C[N+](C)(CCCn1ccnc1[N+](=O)[O-])CCCn1ccnc1[N+](=O)[O-].[I-]    24.2
O=C(CCCn1cnc([N+](=O)[O-])n1)NCCCn1ccnc1[N+](=O)[O-]    8.38
O=C(CCCn1ccnc1[N+](=O)[O-])NCCn1cnc([N+](=O)[O-])n1    10.7

Would you kindly look at the next entry?
Exercise: Please respond with reported HF (system EMT6) for O=[N+]([O-])c1nccn1CC(O)CNCCBr (stereo not given) .
Solution: 1.55

###

Recorded measurements of selectivity ratio, one per entry
ASSAY_NAME: Ratio between aerobic CT10 and hypoxic CT10; No aerobic cytotoxicity at the solubility limit

Recorded selectivity ratio, per entry:
O=C(CCCn1cnc([N+](=O)[O-])n1)NCCn1ccnc1[N+](=O)[O-]    > 1
O=[N+]([O-])c1nccn1CC1OC(n2ccnc2[N+](=O)[O-])C(O)C(O)C1O (stereo not given)    > 1.5

Exercise: Give the value of selectivity ratio reported for the following: O=C(CCCn1ccnc1[N+](=O)[O-])NCCn1cnc([N+](=O)[O-])n1
Solution: > 6

Exercise: # return recorded selectivity ratio for input Cc1ncc([N+](=O)[O-])n1CC(O)Cn1ccnc1[N+](=O)[O-] (stereo not given)
Solution: > 3

Exercise: Give a short answer stating reported selectivity ratio for Cc1ncc([N+](=O)[O-])n1CCNC(=O)CCC(=O)NCCn1ccnc1[N+](=O)[O-] .
Solution: > 6

###

ASSAY_NAME: Ratio between aerobic CT10 and hypoxic CT10
Type: functional
MEASURE_NAME: selectivity ratio

Worked examples follow.
O=[N+]([O-])c1nccn1CCCNCCCn1ccnc1[N+](=O)[O-]    40
CN(CCCn1ccnc1[N+](=O)[O-])CCCn1ccnc1[N+](=O)[O-]    40
Cc1ncc([N+](=O)[O-])n1CCNC(=O)CCCn1cnc([N+](=O)[O-])n1    > 1.3
O=[N+]([O-])c1nccn1CC(O)CN1CCCCC1 (stereo not drawn) [PIMONIDAZOLE]    40
Cc1ncc([N+](=O)[O-])n1CCN(C)C(=O)CCCn1ccnc1[N+](=O)[O-]    > 18

Exercise: Complete the entry with selectivity ratio for Cc1ncc([N+](=O)[O-])n1CCNCCCCn1ccnc1[N+](=O)[O-]
Solution: 12

Exercise: Return reported selectivity ratio. Input compound: C[N+](C)(CCCn1ccnc1[N+](=O)[O-])CCCn1ccnc1[N+](=O)[O-].[I-]
Solution: 10

Exercise: Supply measured selectivity ratio of Cc1ncc([N+](=O)[O-])n1CCNC(=O)CCCn1ccnc1[N+](=O)[O-] in your reply.
Solution: 8

###

Items are presented alongside their recorded HF.
Test system: FME
ASSAY_NAME: Hypersensitivity (HF) factor in human melanoma FME cells [HF= ratio (IC50 in AA8 cells)/(IC50 in FME cells)]
Type: functional
Keep the answer to the number alone.

Cc1ncc([N+](=O)[O-])n1CCN(C)C(=O)CCCn1ccnc1[N+](=O)[O-]    2.83
O=[N+]([O-])c1nccn1CC(O)CN1CCCCC1 (stereo unspecified) [PIMONIDAZOLE]    4.07
Cc1ncc([N+](=O)[O-])n1CCNCCCCn1ccnc1[N+](=O)[O-]    1.27

Exercise: Fill in HF for record O=[N+]([O-])c1nccn1CCCNCCCn1ccnc1[N+](=O)[O-]
Solution: 2.58

Exercise: Could you please provide reported HF for Cc1ncc([N+](=O)[O-])n1CC(O)Cn1cnc([N+](=O)[O-])n1 (stereo unspecified) ? Thanks!
Solution: 3.63

Exercise: Provide only the value of recorded HF for C[N+](C)(CCCn1ccnc1[N+](=O)[O-])CCCn1ccnc1[N+](=O)[O-].[I-]
Solution: 4.85

Exercise: Answer with the recorded HF for the molecule listed here: O=C(CCCn1ccnc1[N+](=O)[O-])NCCn1cnc([N+](=O)[O-])n1
Solution: 6.9

Exercise: Return HF for the following molecule: O=[N+]([O-])c1nccn1CC(O)CNCCBr (stereo unspecified)
Solution: 1

###

Below, each entry is listed with its recorded CT10.
Tested on: CHO-AA8
ASSAY_NAME: Concentration x time (uM h) to reduce cell survival to 10% of control values under hypoxic conditions by clonogenic assay
Type: ADME, cell-based, Cricetulus griseus
TEST_SETTINGS: chinese hamster
Write it as a number; the unit µM·h goes unstated.

O=[N+]([O-])c1nccn1CC1OC(n2ccnc2[N+](=O)[O-])C(O)C(O)C1O (stereo unspecified)    57000
Cc1ncc([N+](=O)[O-])n1CCNC(=O)CCC(=O)NCCn1ccnc1[N+](=O)[O-]    47000
O=C(CCCn1cnc([N+](=O)[O-])n1)NCCn1ccnc1[N+](=O)[O-]    15000

Exercise: For the compound CN(CCCn1ccnc1[N+](=O)[O-])CCCn1ccnc1[N+](=O)[O-] , report CT10.
Solution: 700

Exercise: // fetch CT10 given entry Cc1ncc([N+](=O)[O-])n1CC(O)Cn1ccnc1[N+](=O)[O-] (stereo unspecified)
Solution: 2400

Exercise: Please report the measured CT10 for Cc1ncc([N+](=O)[O-])n1CCNCCCCn1ccnc1[N+](=O)[O-]
Solution: 2400

Hey, just so you know, these numbers are from ChEMBL document CHEMBL1128381.
